# assayed.target: CYP3A4 (Homo sapiens)
# Sequence (P08684 whole entry): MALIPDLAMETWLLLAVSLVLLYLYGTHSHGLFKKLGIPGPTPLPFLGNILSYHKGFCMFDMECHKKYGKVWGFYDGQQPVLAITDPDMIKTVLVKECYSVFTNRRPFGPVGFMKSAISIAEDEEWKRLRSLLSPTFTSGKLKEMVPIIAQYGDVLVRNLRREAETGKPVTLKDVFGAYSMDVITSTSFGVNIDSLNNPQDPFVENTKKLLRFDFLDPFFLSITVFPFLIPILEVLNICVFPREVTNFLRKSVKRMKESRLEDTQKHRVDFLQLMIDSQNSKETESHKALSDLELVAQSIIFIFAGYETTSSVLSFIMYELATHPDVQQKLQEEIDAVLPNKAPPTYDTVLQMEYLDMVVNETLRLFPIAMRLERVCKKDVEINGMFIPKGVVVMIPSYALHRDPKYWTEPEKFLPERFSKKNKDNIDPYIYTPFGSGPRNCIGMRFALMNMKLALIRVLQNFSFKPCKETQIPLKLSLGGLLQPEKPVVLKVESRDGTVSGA
# protocol.description: Inhibition of CYP3A4 (unknown origin) at 10 uM relative to control
# Type: ADME
Entries annotated with measured inhibition at 10 µM
measured.endpoint: inhibition at 10 µM (%)

NCc1cccc(C2CCN(C(=O)/C=C/c3ccc(O)c(O)c3)CC2)c1; 19
NCc1cccc(C2CCN(C(=O)c3cccc4ccc(B(O)O)cc34)CC2)c1; 27

###

# protocol.description: Drug concentration in tumor of mouse xenografted with human HMC1 cells at 10 mg/kg, iv dosed at time 0 and again 24 hrs later and measured at 24 hrs after second dose by LC-MS/MS analysis
# Format: ADME, organism-based, Neoplasm
# measurement.context: read-out: Drug uptake
Property: concentration at 24 h; scope: individual molecules
measured.endpoint: concentration at 24 h (nM)

NCc1ccc2c(c1)C1(CCN(C(=O)c3cccc(-c4cccc(B(O)O)c4)c3)CC1)CO2.O=C(O)C(F)(F)F; 2.14
NCc1ccc2c(c1)C1(CCN(C(=O)c3cc(O)c(O)c(Cl)c3)CC1)CO2.O=C(O)C(F)(F)F; 8.64

Data credit: ChEMBL document CHEMBL4342466
